# Tested on: Giant foxtail (Setaria faberi)
# METHOD: Test Example 6: foliar treatment, herbicidal activity index
# Type: in vivo
# CONDITION LABEL: foliar spray, 3.3 g/ha, 4 days after application, index 0 to 10
Measured Herbicidal activity GF values are reported for all entries that follow.
Answer with a number only.

COMPOUND	MEASURE	VALUE REPORTED
COC(=O)c1ccccc1Oc1cc(-n2c(=O)cc(C(F)(F)F)n(C)c2=O)c(F)cc1C#N [C, reference compound]	Herbicidal activity GF	4

Fill in: Herbicidal activity GF of COC(=O)COc1ccccc1Oc1cc(-n2c(=O)cc(C(F)(F)F)n(C)c2=O)c(F)cc1C#N [Compound 4-22] is ___ 10

Also check COc1ccccc1Oc1cc(-n2c(=O)cc(C(F)(F)F)n(C)c2=O)c(F)cc1C#N [B, reference compound] 7

Also check COC(=O)COc1ccccc1Oc1cc(-n2c(=O)cc(C(F)(F)F)n(C)c2=O)c(F)cc1Cl [Compound 3-11] 9

----------
Measured Herbicidal activity LC values are reported for all entries that follow.
# Tested on: large crabgrass (Digitaria sanguinalis)
# METHOD: Test Example 6: foliar treatment, herbicidal activity index
# Assay type: in vivo
# CONDITION LABEL: foliar spray, 1 g/ha, 4 days after application, index 0 to 10
Answer with a number only.

Please review the following examples before continuing.
COMPOUND	VALUE REPORTED
COC(=O)COc1ccccc1Oc1cc(-n2c(=O)cc(C(F)(F)F)n(C)c2=O)c(F)cc1C#N	9
COc1ccccc1Oc1cc(-n2c(=O)cc(C(F)(F)F)n(C)c2=O)c(F)cc1C#N [B, reference compound]	7
COC(=O)COc1ccccc1Oc1cc(-n2c(=O)cc(C(F)(F)F)n(C)c2=O)c(F)cc1Cl	9

Attention now turns to another entry.
Fill in: Herbicidal activity LC of COC(=O)c1ccccc1Oc1cc(-n2c(=O)cc(C(F)(F)F)n(C)c2=O)c(F)cc1C#N [C, reference compound] is ___ 3

----------
# Test system: Broadleaf signalgrass (Brachiaria platyphylla)
# METHOD: Test Example 6: foliar treatment, herbicidal activity index
# Format: in vivo
# CONDITION LABEL: foliar spray, 1 g/ha, 4 days after application, index 0 to 10
Measured Herbicidal activity BC values are reported for all entries that follow.
Answer with a number only.

Please review the following examples before continuing.
COMPOUND	TARGET ENTITY	VALUE REPORTED
COC(=O)c1ccccc1Oc1cc(-n2c(=O)cc(C(F)(F)F)n(C)c2=O)c(F)cc1C#N [C, reference compound]	Broadleaf signalgrass (Brachiaria platyphylla)	3
COC(=O)COc1ccccc1Oc1cc(-n2c(=O)cc(C(F)(F)F)n(C)c2=O)c(F)cc1C#N [Compound 4-22]	Broadleaf signalgrass (Brachiaria platyphylla)	8
COC(=O)COc1ccccc1Oc1cc(-n2c(=O)cc(C(F)(F)F)n(C)c2=O)c(F)cc1Cl [Compound 3-11]	Broadleaf signalgrass (Brachiaria platyphylla)	9

Attention now turns to another entry.
Fill in: Herbicidal activity BC of COc1ccccc1Oc1cc(-n2c(=O)cc(C(F)(F)F)n(C)c2=O)c(F)cc1C#N [B, reference compound] is ___ 6

----------
# Test system: large crabgrass (Digitaria sanguinalis)
# METHOD: Test Example 6: foliar treatment, herbicidal activity index
# Type: in vivo
# CONDITION LABEL: foliar spray, 3.3 g/ha, 4 days after application, index 0 to 10
MEASURE: Herbicidal activity LC
Answer with a number only.

Please review the following examples before continuing.
COMPOUND	TARGET ENTITY	MEASURE	VALUE REPORTED
COc1ccccc1Oc1cc(-n2c(=O)cc(C(F)(F)F)n(C)c2=O)c(F)cc1C#N [B, reference compound]	large crabgrass (Digitaria sanguinalis)	Herbicidal activity LC	8
COC(=O)c1ccccc1Oc1cc(-n2c(=O)cc(C(F)(F)F)n(C)c2=O)c(F)cc1C#N [C, reference compound]	large crabgrass (Digitaria sanguinalis)	Herbicidal activity LC	5
COC(=O)COc1ccccc1Oc1cc(-n2c(=O)cc(C(F)(F)F)n(C)c2=O)c(F)cc1Cl	large crabgrass (Digitaria sanguinalis)	Herbicidal activity LC	10

Attention now turns to another entry.
Fill in: Herbicidal activity LC of COC(=O)COc1ccccc1Oc1cc(-n2c(=O)cc(C(F)(F)F)n(C)c2=O)c(F)cc1C#N is ___ 9
